Hello, the source for this data is ChEMBL document CHEMBL4400519, in case you need it.

assay system: Cholinesterase (Homo sapiens, UniProt P06276)
Sequence (P06276 whole entry): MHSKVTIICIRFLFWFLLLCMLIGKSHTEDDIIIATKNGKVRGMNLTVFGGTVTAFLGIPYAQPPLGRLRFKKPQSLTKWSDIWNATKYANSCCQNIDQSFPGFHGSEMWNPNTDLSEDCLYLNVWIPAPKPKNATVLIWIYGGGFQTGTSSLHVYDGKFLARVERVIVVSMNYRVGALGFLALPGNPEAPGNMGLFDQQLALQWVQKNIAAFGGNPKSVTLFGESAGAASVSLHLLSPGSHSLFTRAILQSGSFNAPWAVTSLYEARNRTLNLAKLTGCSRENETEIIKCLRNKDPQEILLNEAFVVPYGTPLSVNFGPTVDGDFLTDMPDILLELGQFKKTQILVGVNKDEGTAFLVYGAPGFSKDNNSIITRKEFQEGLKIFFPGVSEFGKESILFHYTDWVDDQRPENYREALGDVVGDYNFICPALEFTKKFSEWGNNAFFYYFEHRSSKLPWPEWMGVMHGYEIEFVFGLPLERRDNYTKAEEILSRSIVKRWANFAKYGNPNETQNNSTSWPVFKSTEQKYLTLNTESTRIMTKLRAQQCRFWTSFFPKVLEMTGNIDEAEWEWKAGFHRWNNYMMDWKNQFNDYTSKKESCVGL
assay protocol: Inhibition of human serum BChE using butyrylthiocholine as substrate by Ellman's assay
value type: IC50 (µM)
Expressed in µM, but write only the number.

# chemical structure, assay system, result value
records = [
    ("O=C(c1cccc(F)c1F)n1nc(OCCN2CCCC2)c2ccccc21", "Cholinesterase (Homo sapiens, UniProt P06276)", 11),
    ("COc1ccc(CC(=O)n2nc(OCCN3CCCC3)c3ccccc32)cc1", "Cholinesterase (Homo sapiens, UniProt P06276)", 9),
]

Query block: Quick one: IC50 for O=C(c1ccccc1OCc1ccccc1)n1nc(OCCN2CCCC2)c2ccccc21 ?
Result block: 0.39

* * *

assay system: Cannabinoid receptor (Mus musculus) (UniProt P47746+P47936)
Sequence (P47746 whole entry, looked up): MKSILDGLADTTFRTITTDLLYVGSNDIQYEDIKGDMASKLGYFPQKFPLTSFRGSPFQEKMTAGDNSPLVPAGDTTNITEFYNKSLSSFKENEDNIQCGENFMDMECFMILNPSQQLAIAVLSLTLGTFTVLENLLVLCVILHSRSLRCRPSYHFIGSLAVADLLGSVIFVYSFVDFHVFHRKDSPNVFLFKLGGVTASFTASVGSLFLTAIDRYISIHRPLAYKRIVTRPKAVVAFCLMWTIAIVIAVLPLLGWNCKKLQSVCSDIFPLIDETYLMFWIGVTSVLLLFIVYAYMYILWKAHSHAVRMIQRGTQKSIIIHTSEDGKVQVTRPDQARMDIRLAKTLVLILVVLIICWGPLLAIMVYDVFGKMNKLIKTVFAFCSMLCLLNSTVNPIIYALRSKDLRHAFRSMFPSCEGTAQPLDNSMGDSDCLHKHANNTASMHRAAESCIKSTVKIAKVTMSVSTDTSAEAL
Sequence (P47936 whole entry, looked up): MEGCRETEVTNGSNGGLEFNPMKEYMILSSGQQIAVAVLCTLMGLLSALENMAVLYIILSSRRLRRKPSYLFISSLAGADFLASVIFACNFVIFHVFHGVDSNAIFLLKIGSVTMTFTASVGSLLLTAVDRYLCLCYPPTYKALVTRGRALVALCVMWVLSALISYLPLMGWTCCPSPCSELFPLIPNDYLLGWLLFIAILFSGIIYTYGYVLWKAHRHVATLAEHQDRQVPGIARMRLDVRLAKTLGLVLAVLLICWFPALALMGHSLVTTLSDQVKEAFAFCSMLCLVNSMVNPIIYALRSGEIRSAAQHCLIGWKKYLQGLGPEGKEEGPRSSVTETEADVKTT
assay protocol: Agonist activity at cannabinoid receptor in ICR mouse vas deferens assessed as inhibition of electrically induced contractions at 3 x 10^-7 M after 10 mins in presence of CB1 antagonist AM251 relative to control
Assay type: protein assay
value type: inhibition (%)
Expressed in %, but write only the number.

Before answering, review these 8 worked examples.
# chemical structure, inhibition (%)
records = [
    ("COc1cc(C(=O)n2nc(OCCN3CCCC3)c3ccccc32)cc(OC)c1OC", 6),
    ("O=C(c1c(F)ccc(F)c1F)n1nc(OCCN2CCCCC2)c2ccccc21", -3.5),
    ("COc1ccc(CC(=O)n2nc(OCCN3CCCC3)c3ccccc32)cc1", -0.9),
    ("O=C(c1cccc(Cl)c1Cl)n1nc(OCCN2CCCCC2)c2ccccc21", -0.9),
    ("O=C(c1cccc(Cl)c1Cl)n1nc(OCCCN2CCCCC2)c2ccccc21", 2),
    ("O=C(c1ccccc1Cl)n1nc(OCCN2CCCC2)c2ccccc21", -2.8),
    ("Cc1c(C(=O)NN2CCCCC2)nn(-c2ccc(Cl)cc2Cl)c1-c1ccc(I)cc1", -2),
    ("O=C(c1cccc2ccccc12)n1nc(OCCCN2CCCC2)c2ccccc21", -8.6),
]

Query block: Request - read-out inhibition | tested on Cannabinoid receptor (Mus musculus) (UniProt P47746+P47936) | compound O=C(c1cccc(Cl)c1Cl)n1nc(OCCN2CCCC2)c2ccccc21
Result block: 3.4

Query block: Item: O=C(c1cccc2ccccc12)n1nc(OCCCN2CCCCC2)c2ccccc21
Result block: -5

* * *

Examples of compounds with documented inhibition follow.
assay system: Cannabinoid receptor (Mus musculus) (UniProt P47746+P47936)
assay protocol: Agonist activity at cannabinoid receptor in ICR mouse vas deferens assessed as inhibition of electrically induced contractions at 2.7 x 10^-6 M after 10 mins in presence of CB2 antagonist AM630 relative to control
Assay type: protein assay
Expressed in %, but write only the number.

Before answering, review these 2 worked examples.
# chemical structure, inhibition (%)
measured = [
    ("O=C(c1cccc(Cl)c1F)n1nc(OCCCN2CCCCC2)c2ccccc21", -2.8),
    ("O=C(c1cccc2ccccc12)n1nc(OCCCN2CCCC2)c2ccccc21", 15.2),
]

Query block: Quick one: inhibition for O=C(c1cccc2ccccc12)n1nc(OCCN2CCCCC2)c2ccccc21 ?
Result block: 15.7

Query block: Item: O=C(c1ccccc1OCc1ccccc1)n1nc(OCCCN2CCCCC2)c2ccccc21
Result block: -3

Query block: Item: O=C(c1cccc(F)c1F)n1nc(OCCN2CCCC2)c2ccccc21
Result block: 13.2

* * *

Examples of compounds with documented inhibition follow.
assay system: Beta-secretase 1 (Homo sapiens) (UniProt P56817)
Sequence (P56817 whole entry): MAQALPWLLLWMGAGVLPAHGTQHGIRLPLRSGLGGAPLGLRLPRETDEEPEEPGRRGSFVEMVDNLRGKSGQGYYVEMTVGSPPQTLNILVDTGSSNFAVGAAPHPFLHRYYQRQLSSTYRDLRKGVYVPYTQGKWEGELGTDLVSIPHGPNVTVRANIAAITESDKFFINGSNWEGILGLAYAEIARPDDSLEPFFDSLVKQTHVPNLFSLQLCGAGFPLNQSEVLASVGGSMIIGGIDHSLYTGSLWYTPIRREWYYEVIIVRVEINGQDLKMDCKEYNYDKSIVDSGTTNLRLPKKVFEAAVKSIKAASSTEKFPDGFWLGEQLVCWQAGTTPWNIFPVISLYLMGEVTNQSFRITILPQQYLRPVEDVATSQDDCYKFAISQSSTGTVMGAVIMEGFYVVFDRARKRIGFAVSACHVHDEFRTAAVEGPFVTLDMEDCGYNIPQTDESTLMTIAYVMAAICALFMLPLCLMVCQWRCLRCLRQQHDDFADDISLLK
assay protocol: Inhibition of human BACE1 at 10 uM incubated for 60 mins using rhodamine-EVNLDAEFK-quencher substrate by FRET assay
Write down the value, and be sure its unit follows.

Before answering, review these 3 worked examples.
# chemical structure, assay system, inhibition
data = [
    ("O=C(c1ccccc1Cl)n1nc(OCCCN2CCCCC2)c2ccccc21", "Beta-secretase 1 (Homo sapiens) (UniProt P56817)", "12%"),
    ("O=C(c1cccc(Cl)c1Cl)n1nc(OCCN2CCCCC2)c2ccccc21", "Beta-secretase 1 (Homo sapiens) (UniProt P56817)", "18.1%"),
    ("O=C(Cc1ccc(Cl)cc1)n1nc(OCCCN2CCCCC2)c2ccccc21", "Beta-secretase 1 (Homo sapiens) (UniProt P56817)", "50%"),
]

Query block: Quick one: inhibition for COc1ccc(CC(=O)n2nc(OCCCN3CCCCC3)c3ccccc32)cc1 ?
Result block: 60%

Query block: Item: O=C(c1ccc2ccccc2c1)n1nc(OCCN2CCCCC2)c2ccccc21
Result block: 50%

Query block: Item: O=C(c1ccc2ccccc2c1)n1nc(OCCCN2CCCCC2)c2ccccc21
Result block: 38%

Query block: Item: COc1cc(C(=O)n2nc(OCCN3CCCC3)c3ccccc32)cc(OC)c1OC
Result block: 6%

Query block: Item: COc1ccc(COc2nn(CCN(C(C)C)C(C)C)c3ccccc23)cc1
Result block: 9%

* * *

Examples of compounds with documented IC50 follow.
assay system: Cholinesterase (Homo sapiens, UniProt P06276)
assay protocol: Inhibition of human serum BChE using butyrylthiocholine as substrate by Ellman's assay

# chemical structure, value type, result value
measured = [
    ("O=C(c1cccc2ccccc12)n1nc(OCCCN2CCCC2)c2ccccc21", "IC50", "0.15 nM"),
    ("O=C(c1cccc(Cl)c1F)n1nc(OCCCN2CCCCC2)c2ccccc21", "IC50", "800 nM"),
    ("O=C(c1cccc2ccccc12)n1nc(OCCCN2CCCCC2)c2ccccc21", "IC50", "0.07 nM"),
    ("O=C(c1cccc(Cl)c1Cl)n1nc(OCCN2CCCCC2)c2ccccc21", "IC50", "600 nM"),
]

For the next question, use this compound.
Query block: Request - read-out IC50 | tested on Cholinesterase (Homo sapiens, UniProt P06276) | compound O=C(c1ccccc1OCc1ccccc1)n1nc(OCCCN2CCCCC2)c2ccccc21
Result block: 2.5 nM

* * *

assay system: Cannabinoid receptor (Mus musculus) (UniProt P47746+P47936)
assay protocol: Agonist activity at cannabinoid receptor in ICR mouse vas deferens assessed as inhibition of electrically induced contractions at 8.1 x 10^-6 M after 10 mins relative to control
Assay type: protein assay
Examples of molecules with documented inhibition follow.
Expressed in %, but write only the number.

# chemical structure, value type, unit descriptor, result value
rows = [
    ("O=C(c1ccc2ccccc2c1)n1nc(OCCN2CCCCC2)c2ccccc21", "inhibition", "%", 4),
]

Query block: Quick one: inhibition for O=C(c1c(F)ccc(F)c1F)n1nc(OCCN2CCCCC2)c2ccccc21 ?
Result block: 60.9

Query block: Item: COc1ccc(CC(=O)n2nc(OCCCN3CCCCC3)c3ccccc32)cc1
Result block: 88.5

Query block: Item: O=C(c1cccc2ccccc12)n1nc(OCCCN2CCCCC2)c2ccccc21
Result block: 31.5

* * *

Examples of compounds with documented inhibition follow.
assay system: Cannabinoid receptor (Mus musculus) (UniProt P47746+P47936)
assay protocol: Agonist activity at cannabinoid receptor in ICR mouse vas deferens assessed as inhibition of electrically induced contractions at 10^-7 M after 10 mins in presence of CB2 antagonist AM630 relative to control
Type: protein assay
Expressed in %, but write only the number.

Before answering, review these 4 worked examples.
# chemical structure, unit descriptor, inhibition
records = [
    ("O=C(c1ccccc1Cl)n1nc(OCCN2CCCC2)c2ccccc21", "%", -2.5),
    ("COc1cc(C(=O)n2nc(OCCN3CCCC3)c3ccccc32)cc(OC)c1OC", "%", -1),
    ("O=C(c1cccc2ccccc12)n1nc(OCCCN2CCCC2)c2ccccc21", "%", -2.7),
    ("COc1ccc(CC(=O)n2nc(OCCN3CCCC3)c3ccccc32)cc1", "%", 0.1),
]

Query block: Quick one: inhibition for Cc1c(C(=O)c2cccc3ccccc23)c2cccc3c2n1[C@H](CN1CCOCC1)CO3 ?
Result block: -1.1

Query block: Item: O=C(c1cccc2ccccc12)n1nc(OCCN2CCCCC2)c2ccccc21
Result block: -8.6

Query block: Item: O=C(c1cccc2ccccc12)n1nc(OCCCN2CCCCC2)c2ccccc21
Result block: -8.2

* * *

Examples of molecules with documented pIC50 follow.
assay system: Acetylcholinesterase (Homo sapiens, UniProt P22303)
Sequence (P22303 whole entry): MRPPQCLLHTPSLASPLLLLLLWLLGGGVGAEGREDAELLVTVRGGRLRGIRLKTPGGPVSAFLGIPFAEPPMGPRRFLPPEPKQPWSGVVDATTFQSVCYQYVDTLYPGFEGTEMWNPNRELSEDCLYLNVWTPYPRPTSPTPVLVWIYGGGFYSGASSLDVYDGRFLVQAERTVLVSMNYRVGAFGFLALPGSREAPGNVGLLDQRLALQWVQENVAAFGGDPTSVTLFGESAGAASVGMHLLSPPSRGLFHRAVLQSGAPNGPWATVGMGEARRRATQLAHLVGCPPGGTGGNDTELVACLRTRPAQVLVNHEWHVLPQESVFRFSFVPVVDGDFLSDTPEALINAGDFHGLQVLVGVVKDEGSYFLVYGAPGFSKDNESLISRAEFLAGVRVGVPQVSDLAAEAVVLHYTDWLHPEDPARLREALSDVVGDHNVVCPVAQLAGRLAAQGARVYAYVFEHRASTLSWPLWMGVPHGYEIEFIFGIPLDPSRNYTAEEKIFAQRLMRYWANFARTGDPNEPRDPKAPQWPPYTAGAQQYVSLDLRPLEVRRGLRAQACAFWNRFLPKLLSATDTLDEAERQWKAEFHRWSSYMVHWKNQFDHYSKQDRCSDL
Give only the number. pIC50 is defined as minus log10 of concentration in molar units.

# chemical structure, result value
records = [
    ("O=C(c1c(F)ccc(F)c1F)n1nc(OCCN2CCCCC2)c2ccccc21", 5.03),
    ("COc1cc(C(=O)n2nc(OCCN3CCCC3)c3ccccc32)cc(OC)c1OC", 4.94),
]

For the next question, use this molecule.
Query block: Quick one: pIC50 for O=C(c1ccccc1Cl)n1nc(OCCN2CCCC2)c2ccccc21 ?
Result block: 5.01

* * *

Examples of compounds with documented inhibition follow.
assay system: Cannabinoid receptor (Mus musculus) (UniProt P47746+P47936)
assay protocol: Agonist activity at cannabinoid receptor in ICR mouse vas deferens assessed as inhibition of electrically induced contractions at 10^-7 M after 10 mins in presence of CB1 antagonist AM251 relative to control
Format: protein assay
Expressed in %, but write only the number.

# chemical structure, inhibition [%]
rows = [
    ("O=C(c1cccc(Cl)c1Cl)n1nc(OCCCN2CCCCC2)c2ccccc21", -0.7),
]

Query block: Quick one: inhibition for Cc1c(C(=O)c2cccc3ccccc23)c2cccc3c2n1[C@H](CN1CCOCC1)CO3 ?
Result block: -3.9

Query block: Item: O=C(c1ccccc1OCc1ccccc1)n1nc(OCCN2CCCC2)c2ccccc21
Result block: -1.9

Query block: Item: O=C(c1cccc2ccccc12)n1nc(OCCCN2CCCCC2)c2ccccc21
Result block: -6.4

Query block: Item: COc1ccc(CC(=O)n2nc(OCCCN3CCCCC3)c3ccccc32)cc1
Result block: -9.4

Query block: Item: O=C(c1ccccc1OCc1ccccc1)n1nc(OCCCN2CCCCC2)c2ccccc21
Result block: -6.8

Query block: Item: Cc1cc(C)c(C(=O)n2nc(OCCN3CCCCC3)c3ccccc32)c(C)c1
Result block: -0.4

Query block: Item: O=C(c1cccc(Cl)c1Cl)n1nc(OCCN2CCCC2)c2ccccc21
Result block: -0.3

Query block: Item: O=C(c1cccc(Cl)c1Cl)n1nc(OCCN2CCCCC2)c2ccccc21
Result block: -1.8

Query block: Item: O=C(c1cccc(F)c1F)n1nc(OCCN2CCCC2)c2ccccc21
Result block: -1.6
